molecular target: CYP2B11 (Canis lupus familiaris)
Sequence (P24460 whole entry): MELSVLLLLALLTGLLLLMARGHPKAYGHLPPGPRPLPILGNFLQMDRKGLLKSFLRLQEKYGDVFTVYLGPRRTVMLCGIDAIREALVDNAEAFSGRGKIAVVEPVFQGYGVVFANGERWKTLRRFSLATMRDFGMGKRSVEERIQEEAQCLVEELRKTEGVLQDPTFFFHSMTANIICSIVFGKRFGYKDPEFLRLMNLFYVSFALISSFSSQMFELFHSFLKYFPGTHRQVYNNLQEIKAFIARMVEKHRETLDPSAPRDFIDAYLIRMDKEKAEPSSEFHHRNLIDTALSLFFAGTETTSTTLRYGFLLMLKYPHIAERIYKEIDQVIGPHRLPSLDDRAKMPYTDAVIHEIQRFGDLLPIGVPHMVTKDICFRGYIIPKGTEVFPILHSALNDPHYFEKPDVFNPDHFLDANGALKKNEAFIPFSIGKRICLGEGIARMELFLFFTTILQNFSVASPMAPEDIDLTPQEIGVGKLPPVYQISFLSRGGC
pIC50: −log10 of the molar value.
ATTRIBUTE MEASURED: pIC50

[[record]]
chemical_string = "C=C(C)[C@@H]1CCC(C)=C[C@H]1c1c(O)cc(CCCCC)cc1O"
reported_result = "> 6.00"


----------
Experiment: Single-dose oral pharmacokinetics of CBD in healthy dogs
Format: in vivo
Details: dog, serum, single oral dose 2 mg/kg total CBD/CBDA, read-out: area under the curve (AUC)
Method: The single-dose oral pharmacokinetics of CBD and an assessment of safety and adverse effects during 12-week administration using a hemp-based product in healthy dogs and cats were determined in this study. […]
ATTRIBUTE MEASURED: AUC (ng·h/mL)

[[record]]
chemical_string = "C=C(C)[C@@H]1CCC(C)=C[C@H]1c1c(O)cc(CCCCC)cc1O"
reported_result = 1300

